molecular target: NLRP3 (Homo sapiens, UniProt Q96P20)
Sequence (Q96P20 whole entry): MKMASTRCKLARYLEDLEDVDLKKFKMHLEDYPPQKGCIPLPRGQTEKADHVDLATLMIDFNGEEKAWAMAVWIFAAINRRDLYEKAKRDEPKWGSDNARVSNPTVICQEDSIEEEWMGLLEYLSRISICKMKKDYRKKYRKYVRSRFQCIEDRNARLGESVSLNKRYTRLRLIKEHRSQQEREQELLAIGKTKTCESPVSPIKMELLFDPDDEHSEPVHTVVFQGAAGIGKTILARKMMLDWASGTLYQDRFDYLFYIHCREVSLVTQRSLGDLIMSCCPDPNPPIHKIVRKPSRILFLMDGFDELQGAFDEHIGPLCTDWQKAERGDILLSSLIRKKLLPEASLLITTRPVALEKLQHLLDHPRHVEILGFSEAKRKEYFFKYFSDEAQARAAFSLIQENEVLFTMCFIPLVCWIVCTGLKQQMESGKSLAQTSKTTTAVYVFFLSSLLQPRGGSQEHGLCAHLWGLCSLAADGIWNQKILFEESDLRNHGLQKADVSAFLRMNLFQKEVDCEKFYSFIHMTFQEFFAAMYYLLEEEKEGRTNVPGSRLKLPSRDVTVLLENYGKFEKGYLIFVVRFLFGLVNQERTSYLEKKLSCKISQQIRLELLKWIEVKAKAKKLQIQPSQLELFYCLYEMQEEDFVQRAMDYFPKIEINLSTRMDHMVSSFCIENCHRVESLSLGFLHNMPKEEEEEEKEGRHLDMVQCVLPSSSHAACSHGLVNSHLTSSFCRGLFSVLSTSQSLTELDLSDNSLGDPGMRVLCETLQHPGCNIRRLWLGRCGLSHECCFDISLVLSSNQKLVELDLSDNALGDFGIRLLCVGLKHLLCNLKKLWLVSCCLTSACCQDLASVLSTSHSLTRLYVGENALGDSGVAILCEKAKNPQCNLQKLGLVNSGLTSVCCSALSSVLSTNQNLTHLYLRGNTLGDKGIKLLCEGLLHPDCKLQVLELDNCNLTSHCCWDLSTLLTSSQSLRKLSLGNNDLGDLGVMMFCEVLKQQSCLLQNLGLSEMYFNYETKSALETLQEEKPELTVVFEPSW
measurement_kind: Kd

Lookup: Requested read-out Kd, target or system NLRP3 (Homo sapiens, UniProt Q96P20), entry COc1ccc(CCc2cc(OC)c(OC)c(OC)c2)cc1O
Found: ~0.05 µM
